system: UACC-257 melanoma; assay: NCI tumour cell line growth inhibition, 48 h
Kindly state TGI for each of the entries shown.

What does the data say about its TGI? Entry: O=c1[nH][nH]c(=O)c2c(O)c(-c3ccccc3)ncc12
871 µM

What does the data say about its TGI? Entry: Cc1nc2c(n1Cc1ccc(F)cc1)C(=O)c1ccccc1C2=O
> 100 µM

What does the data say about its TGI? Entry: O=C1/C(=C/c2cccc([N+](=O)[O-])c2)Cc2ccccc21
> 100 µM

What does the data say about its TGI? Entry: CCN(CC)CCC(=O)Nc1ccc2sc3ccccc3c(=O)c2n1
37.5 µM

What does the data say about its TGI? Entry: COc1ccccc1-c1ccc2c(N)c(C(=O)c3ccc4c(c3)OCO4)sc2n1
22.7 µM

What does the data say about its TGI? Entry: CC1=C(C(=O)NNC(=O)c2ccccc2O)CC(C(=O)NNC(=O)c2ccccc2O)=C(C)N1
> 100 µM

What does the data say about its TGI? Entry: COC(=O)/C=C(C)/C=C/c1c(C)c(C(C)=O)c(C)n1C
> 100 µM

What does the data say about its TGI? Entry: O=C1/C=C/[C@@H](O)[C@@H]2C[C@@H](O)C[C@H]2/C=C/CCC[C@H](CCc2ccc(NC(=S)Nc3ccc4c(c3)C(=O)OC43c4ccc(O)cc4Oc4cc(O)ccc43)cc2)O1
> 75.5 µM

What does the data say about its TGI? Entry: NCCCC(N)(C(=O)O)C(F)F (centres undefined)
> 5000 µM

What does the data say about its TGI? Entry: CN(C)c1ccc(/C=N/n2c(CCCCc3n[nH]c(=S)n3/N=C/c3ccc(N(C)C)cc3)n[nH]c2=S)cc1
> 100 µM

What does the data say about its TGI? Entry: O=C(O)C1C2C=CC(O2)C1C(=O)NCc1ccncc1 (centres undefined)
> 100 µM

What does the data say about its TGI? Entry: CC(=O)Oc1ccc(C)c2c1[C@H]1CC[C@]3(C)[C@@H](OC(C)=O)CC[C@H]3[C@@H]1CC2
35.6 µM

What does the data say about its TGI? Entry: O=C1c2c(c3c4ccccc4n(CCCCCCN4CCOCC4)c3c3[nH]c4ccccc4c23)C(=O)N1O
56.6 µM

What does the data say about its TGI? Entry: COc1ccccc1NC(=O)C(=O)C(c1cnc2ccc([N+](=O)[O-])cc2n1)[N+](=O)[O-] (centres undefined)
> 100 µM
